Where do the numbers come from? From patent US20210284638A1.

Target: Recombinant human integrin αVβ3 (Homo sapiens, UniProt P05106+P06756)
Sequence (P05106 27-718 limits assumed, one chain of several): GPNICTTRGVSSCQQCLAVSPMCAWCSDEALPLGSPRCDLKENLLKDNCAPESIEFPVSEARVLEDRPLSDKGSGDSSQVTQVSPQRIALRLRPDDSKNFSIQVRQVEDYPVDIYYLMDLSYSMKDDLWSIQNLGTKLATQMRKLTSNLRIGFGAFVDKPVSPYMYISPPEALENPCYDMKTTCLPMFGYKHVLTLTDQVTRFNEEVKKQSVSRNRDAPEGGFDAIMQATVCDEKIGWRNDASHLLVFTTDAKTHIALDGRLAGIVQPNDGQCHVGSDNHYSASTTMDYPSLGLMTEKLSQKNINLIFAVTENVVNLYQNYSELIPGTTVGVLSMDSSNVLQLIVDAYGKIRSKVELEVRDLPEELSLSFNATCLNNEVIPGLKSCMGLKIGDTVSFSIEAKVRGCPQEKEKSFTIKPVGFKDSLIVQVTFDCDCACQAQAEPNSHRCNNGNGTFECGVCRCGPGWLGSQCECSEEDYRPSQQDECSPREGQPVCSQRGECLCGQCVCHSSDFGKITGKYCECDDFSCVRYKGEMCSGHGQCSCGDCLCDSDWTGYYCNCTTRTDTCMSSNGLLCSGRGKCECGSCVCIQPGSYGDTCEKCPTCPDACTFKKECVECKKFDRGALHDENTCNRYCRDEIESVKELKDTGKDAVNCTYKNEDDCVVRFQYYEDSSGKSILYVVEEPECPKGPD
Assay: Solid Phase Receptor Assay for αVβ3 function
Settings: plate-bound human vitronectin; read-out: αVβ3 SPRA IC50
Counter-ions that a name gives are not always drawn.
QUANTITY: pIC50
Just the number, please; pIC50 means minus log10 of the concentration in mol/L.

Consider the following illustrative entries.
| COMPOUND | pIC50 |
| --- | --- |
| CC(C)c1cc(C#N)cc(C(CC(=O)O)Cc2cc(OCCc3ccc4c(n3)NCCC4)n(C)n2)c1 (stereo not drawn) [Example 2, trifluoroacetic acid] | 8.22 |
| Cn1nc(CC(CC(=O)O)c2cc(C(C)(C)C#N)cc(C(C)(C)C#N)c2)cc1OCCc1ccc2c(n1)NCCC2 (stereo not drawn) [Example 41, trifluoroacetate] | 8.05 |

For reference, reported pIC50 for COc1c(C(C)(C)C)cc(C(CC(=O)O)Cc2cc(OCCc3ccc4c(n3)NCCC4)n(C)n2)cc1C(C)(C)C (stereo not drawn) [Example 10] stands at 6.39

----------
Target: Recombinant human integrin αVβ6 (Homo sapiens, UniProt P06756+P18564)
Sequence (P06756 31-992 limits assumed): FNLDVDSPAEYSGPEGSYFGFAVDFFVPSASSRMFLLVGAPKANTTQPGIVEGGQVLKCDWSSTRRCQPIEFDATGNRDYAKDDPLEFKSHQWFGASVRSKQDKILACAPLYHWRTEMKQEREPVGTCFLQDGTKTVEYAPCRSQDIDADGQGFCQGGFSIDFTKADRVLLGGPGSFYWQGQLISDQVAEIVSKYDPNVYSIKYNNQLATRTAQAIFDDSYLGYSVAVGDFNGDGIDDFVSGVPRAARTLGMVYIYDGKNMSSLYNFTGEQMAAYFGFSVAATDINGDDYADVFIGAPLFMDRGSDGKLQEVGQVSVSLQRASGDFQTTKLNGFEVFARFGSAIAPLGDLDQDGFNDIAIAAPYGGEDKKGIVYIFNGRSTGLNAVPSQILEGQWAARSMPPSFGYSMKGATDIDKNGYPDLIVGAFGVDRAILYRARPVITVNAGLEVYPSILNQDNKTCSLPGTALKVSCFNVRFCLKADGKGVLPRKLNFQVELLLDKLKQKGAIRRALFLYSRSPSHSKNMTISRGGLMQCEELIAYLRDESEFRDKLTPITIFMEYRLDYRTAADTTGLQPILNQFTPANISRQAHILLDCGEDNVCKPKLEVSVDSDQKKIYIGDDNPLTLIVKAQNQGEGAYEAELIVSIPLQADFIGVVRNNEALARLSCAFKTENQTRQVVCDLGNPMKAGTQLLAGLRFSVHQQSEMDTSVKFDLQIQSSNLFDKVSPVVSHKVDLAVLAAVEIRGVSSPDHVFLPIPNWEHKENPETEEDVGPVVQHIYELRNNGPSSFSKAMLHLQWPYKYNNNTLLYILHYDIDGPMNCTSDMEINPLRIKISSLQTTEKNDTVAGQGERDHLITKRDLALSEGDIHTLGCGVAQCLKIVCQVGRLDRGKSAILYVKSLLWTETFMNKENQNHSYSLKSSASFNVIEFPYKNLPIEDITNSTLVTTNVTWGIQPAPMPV
Sequence (P18564 22-707 limits assumed): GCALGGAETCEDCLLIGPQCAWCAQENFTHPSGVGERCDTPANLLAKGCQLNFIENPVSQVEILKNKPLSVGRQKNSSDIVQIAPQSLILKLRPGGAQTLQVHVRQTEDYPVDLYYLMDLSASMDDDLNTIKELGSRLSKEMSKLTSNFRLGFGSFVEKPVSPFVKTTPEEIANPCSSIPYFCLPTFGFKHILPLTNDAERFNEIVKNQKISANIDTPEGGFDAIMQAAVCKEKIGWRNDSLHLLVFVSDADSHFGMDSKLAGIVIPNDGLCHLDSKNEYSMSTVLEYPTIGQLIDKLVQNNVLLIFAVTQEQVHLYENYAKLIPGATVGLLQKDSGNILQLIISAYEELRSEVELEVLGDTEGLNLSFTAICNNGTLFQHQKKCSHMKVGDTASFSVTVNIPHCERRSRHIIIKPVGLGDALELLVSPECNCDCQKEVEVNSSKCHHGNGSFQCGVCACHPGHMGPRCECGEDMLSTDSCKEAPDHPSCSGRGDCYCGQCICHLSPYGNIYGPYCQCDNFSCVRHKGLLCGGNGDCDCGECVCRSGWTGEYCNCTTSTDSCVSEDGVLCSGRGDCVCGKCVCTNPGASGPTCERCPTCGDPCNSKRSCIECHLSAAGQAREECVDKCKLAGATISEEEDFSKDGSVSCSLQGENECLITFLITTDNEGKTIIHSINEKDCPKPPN
Assay: Solid Phase Receptor Assay (SPRA) for αVβ6 function
Settings: plate-bound human LAP
Where a name gives a salt, the structure may show the parent alone.
Some molecules, each annotated with its measured pIC50.
Just the number, please; pIC50 means minus log10 of the concentration in mol/L.

For reference, reported pIC50 for COc1c(Br)cc(C(C)(C)C)cc1C(CC(=O)O)Cc1cc(OCCc2ccc3c(n2)NCCC3)n(C)n1 (stereo not shown) [Example 12] stands at 6.74

For reference, reported pIC50 for CC(C)(C)c1cc(C(CC(=O)O)Cc2csc(CCCc3ccc4c(n3)NCCC4)n2)cc(C(C)(C)C(F)(F)F)c1 (stereo not shown) [Example 31] stands at 5.77

For reference, reported pIC50 for COc1ccc(C2=CCOCC2)cc1[C@H](CC(=O)O)Cc1csc(CCCc2ccc3c(n2)NCCC3)n1 [Example 37A, trifluoroacetate] stands at 7.51

For reference, reported pIC50 for CC(C)(C)c1ccc(C#N)c(C(CC(=O)O)Cc2csc(CCCc3ccc4c(n3)NCCC4)n2)c1 (stereo not shown) [Example 33] stands at 6.82

For reference, reported pIC50 for Cn1nc(C[C@@H](CC(=O)O)c2cc3c(c(C(C)(C)C)c2)OCO3)cc1OCCc1ccc2c(n1)NCCC2 [Example 47] stands at 7.82

For reference, reported pIC50 for Cn1nc(CC(CC(=O)O)c2cc(C(C)(C)C)ccc2F)cc1OCCc1ccc2c(n1)NCCC2 (stereo not shown) [Example 19] stands at 6.74

For reference, reported pIC50 for CC(C)(C)c1cc(C(CC(=O)O)Cc2cc(OCCc3ccc4c(n3)NCCC4)n(CC(F)(F)F)n2)cc(C(C)(C)C)c1 (stereo not shown) [Example 40, trifluoroacetate] stands at 6.10

----------
Target: Recombinant human integrin αVβ5 (Homo sapiens, UniProt P06756+P18084)
Sequence (P18084 24-719 limits assumed, one chain of several): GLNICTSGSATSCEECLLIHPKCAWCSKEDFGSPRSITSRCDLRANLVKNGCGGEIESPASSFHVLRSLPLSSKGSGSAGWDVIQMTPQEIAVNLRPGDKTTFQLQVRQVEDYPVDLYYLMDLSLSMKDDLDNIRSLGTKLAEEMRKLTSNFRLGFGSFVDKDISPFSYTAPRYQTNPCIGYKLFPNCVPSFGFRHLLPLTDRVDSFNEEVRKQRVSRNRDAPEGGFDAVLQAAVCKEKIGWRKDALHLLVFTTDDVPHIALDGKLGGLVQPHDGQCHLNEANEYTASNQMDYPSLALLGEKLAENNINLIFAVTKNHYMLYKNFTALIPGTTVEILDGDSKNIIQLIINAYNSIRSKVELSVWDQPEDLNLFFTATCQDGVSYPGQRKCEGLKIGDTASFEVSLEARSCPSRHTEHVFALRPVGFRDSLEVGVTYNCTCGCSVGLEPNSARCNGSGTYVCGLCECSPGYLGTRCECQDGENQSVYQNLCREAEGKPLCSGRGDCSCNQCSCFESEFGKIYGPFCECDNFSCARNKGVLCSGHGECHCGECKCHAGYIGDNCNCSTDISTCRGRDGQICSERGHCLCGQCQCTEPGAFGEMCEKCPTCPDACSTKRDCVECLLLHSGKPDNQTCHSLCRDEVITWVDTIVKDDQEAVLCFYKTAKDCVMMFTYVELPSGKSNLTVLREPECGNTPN
Experiment: Solid Phase Receptor Assay (SPRA) for αVβ5 function
Conditions: plate-bound human vitronectin
Counter-ions that a name gives are not always drawn.
QUANTITY: IC50 (nM)
# unit: nM | format: bare number

Consider the following illustrative entries.
| COMPOUND | UNIT_ANNOTATION | IC50 |
| --- | --- | --- |
| COc1ccc(C2COC2)cc1C(CC(=O)O)Cc1cc(OCCc2ccc3c(n2)NCCC3)n(C)n1 (stereo not shown) [Example 23] | nM | 29 |
| COc1c(Br)cc(C(C)(C)C)cc1C(CC(=O)O)Cc1cc(OCCc2ccc3c(n2)NCCC3)n(C)n1 (stereo not shown) [Example 12] | nM | 160 |
| COc1ccc(C(CC(=O)O)Cc2cc(OCCc3ccc4c(n3)NCCC4)n(C)n2)cc1F (stereo not shown) [Example 44] | nM | 0.22 |

Next compound, please.
For reference, reported IC50 for COc1ccc(C2=CCOCC2)cc1[C@H](CC(=O)O)Cc1csc(CCCc2ccc3c(n2)NCCC3)n1 [Example 37A, trifluoroacetate] stands at 31

----------
Target: Recombinant human integrin αVβ3 (Homo sapiens, UniProt P05106+P06756)
Assay: Solid Phase Receptor Assay for αVβ3 function
Settings: plate-bound human vitronectin; read-out: αVβ3 SPRA IC50
Where a name gives a salt, the structure may show the parent alone.
Doc: threshold 700 nM (exclusive). Items with IC50 beneath it return Yes; others return No.

| MOLECULE | SYSTEM_TESTED | GROUP |
| --- | --- | --- |
| COc1ccc(C2=CCOCC2)cc1C(CC(=O)O)Cc1cc(OCCc2ccc3c(n2)NCCC3)n(C)n1 (centres unmarked) | Recombinant human integrin αVβ3 (Homo sapiens, UniProt P05106+P06756) | Yes |
| COc1c(C(CC(=O)O)Cc2cc(OCCc3ccc4c(n3)NCCC4)n(C)n2)cc(C(C)(C)C)cc1C(C)(C)C (centres unmarked) | Recombinant human integrin αVβ3 (Homo sapiens, UniProt P05106+P06756) | No |
| CC(C)(C)c1cc(C(CC(=O)O)Cc2cc(OCCc3ccc4c(n3)NCCC4)n(CC(F)(F)F)n2)cc(C(C)(C)C)c1 (centres unmarked) [Example 40, trifluoroacetate] | Recombinant human integrin αVβ3 (Homo sapiens, UniProt P05106+P06756) | No |
| COc1ccc(C(C)(C)C)cc1C(CC(=O)O)Cc1csc(CCCc2ccc3c(n2)NCCC3)n1 (centres unmarked) | Recombinant human integrin αVβ3 (Homo sapiens, UniProt P05106+P06756) | No |
| COc1ccc(C2(C(F)F)CC2)cc1C(CC(=O)O)Cc1csc(CCCc2ccc3c(n2)NCCC3)n1 (centres unmarked) | Recombinant human integrin αVβ3 (Homo sapiens, UniProt P05106+P06756) | No |

Problem: Criterion: IC50 strictly below 700 nM. Is it met by COc1cc(C(CC(=O)O)Cc2cc(OCCc3ccc4c(n3)NCCC4)n(C)n2)cc(C23CC4CC(CC(C4)C2)C3)c1OCc1ccccc1 (centres unmarked) ?
Result: Yes

Problem: Criterion: IC50 strictly below 700 nM. Is it met by O=C(O)CC(Cc1cc(OCCc2ccc3c(n2)NCCC3)[nH]n1)c1cccc(F)c1 (centres unmarked) [CC2, reference compound] ?
Result: Yes

Problem: Criterion: IC50 strictly below 700 nM. Is it met by Cn1nc(CC(CC(=O)O)c2cc(C(C)(C)C)ccc2Br)cc1OCCc1ccc2c(n1)NCCC2 (centres unmarked) ?
Result: No

Problem: Criterion: IC50 strictly below 700 nM. Is it met by COc1c(C(C)(C)C)cc(C(CC(=O)O)Cc2csc(CCCc3ccc4c(n3)NCCC4)n2)cc1C(C)(C)C (centres unmarked) ?
Result: No

Problem: Criterion: IC50 strictly below 700 nM. Is it met by CC(C)(C)c1cc(C(CC(=O)O)Cc2csc(CCCc3ccc4c(n3)NCCC4)n2)cc(C(C)(C)C)c1 (centres unmarked) ?
Result: No

Problem: Criterion: IC50 strictly below 700 nM. Is it met by COc1ccc(C2CCOCC2)cc1C(CC(=O)O)Cc1cc(OCCc2ccc3c(n2)NCCC3)n(C)n1 (centres unmarked) ?
Result: Yes

Problem: Criterion: IC50 strictly below 700 nM. Is it met by Cn1nc(CC(CC(=O)O)c2cc(C(C)(C)C)ccc2F)cc1OCCc1ccc2c(n1)NCCC2 (centres unmarked) ?
Result: Yes

Problem: Criterion: IC50 strictly below 700 nM. Is it met by CC(C)(C)c1ccc(C#N)c(C(CC(=O)O)Cc2csc(CCCc3ccc4c(n3)NCCC4)n2)c1 (centres unmarked) ?
Result: Yes

Problem: Criterion: IC50 strictly below 700 nM. Is it met by COc1cc(C(CC(=O)O)Cc2cc(OCCc3ccc4c(n3)NCCC4)n(C)n2)cc(C23CC4CC(CC(C4)C2)C3)c1OC (centres unmarked) ?
Result: Yes

Problem: Criterion: IC50 strictly below 700 nM. Is it met by COc1c(Br)cc(C(C)(C)C)cc1C(CC(=O)O)Cc1cc(OCCc2ccc3c(n2)NCCC3)n(C)n1 (centres unmarked) ?
Result: Yes

----------
Target: Recombinant human integrin αVβ8 (Homo sapiens, UniProt P06756+P26012)
Sequence (P26012 43-684 limits assumed, one chain of several): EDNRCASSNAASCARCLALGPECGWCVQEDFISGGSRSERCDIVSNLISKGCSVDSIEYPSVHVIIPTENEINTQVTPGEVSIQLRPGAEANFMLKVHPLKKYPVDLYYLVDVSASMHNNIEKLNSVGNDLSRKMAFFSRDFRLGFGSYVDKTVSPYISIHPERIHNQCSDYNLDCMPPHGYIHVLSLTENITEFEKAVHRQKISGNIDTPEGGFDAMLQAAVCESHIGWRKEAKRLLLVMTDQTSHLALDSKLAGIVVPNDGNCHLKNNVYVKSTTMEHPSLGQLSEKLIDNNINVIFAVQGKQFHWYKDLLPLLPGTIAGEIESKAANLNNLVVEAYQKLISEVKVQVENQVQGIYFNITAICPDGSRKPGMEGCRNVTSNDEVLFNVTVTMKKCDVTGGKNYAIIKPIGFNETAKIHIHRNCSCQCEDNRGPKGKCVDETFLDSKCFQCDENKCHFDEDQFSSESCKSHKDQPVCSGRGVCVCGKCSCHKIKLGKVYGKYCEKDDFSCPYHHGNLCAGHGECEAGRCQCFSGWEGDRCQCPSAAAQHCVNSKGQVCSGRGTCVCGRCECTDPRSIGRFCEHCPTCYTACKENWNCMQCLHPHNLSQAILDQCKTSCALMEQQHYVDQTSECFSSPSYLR
Experiment: Solid Phase Receptor Assay for αVβ8 function
Conditions: plate-bound human LAP; read-out: αVβ8 SPRA IC50
Structures can show the parent of a compound that is named as a salt.
Doc: threshold 40 nM (exclusive). Items with IC50 beneath it return Yes; others return No.

| MOLECULE | GROUP |
| --- | --- |
| Cn1nc(CC(CC(=O)O)c2cc(C(C)(C)C)ccc2Br)cc1OCCc1ccc2c(n1)NCCC2 (stereo not drawn) [Example 17] | No |
| Cn1nc(CC(CC(=O)O)c2cc(C(C)(C)C)ccc2F)cc1OCCc1ccc2c(n1)NCCC2 (stereo not drawn) [Example 19] | No |
| COc1ccc(C2=CCOCC2)cc1[C@H](CC(=O)O)Cc1csc(CCCc2ccc3c(n2)NCCC3)n1 [Example 37A, trifluoroacetate] | No |
| Cn1nc(CC(CC(=O)O)c2cc(C(C)(C)C)ccc2OC(F)(F)F)cc1OCCc1ccc2c(n1)NCCC2 (stereo not drawn) [Example 20] | No |
| COc1c(C(C)(C)C)cc(C(CC(=O)O)Cc2cc(OCCc3ccc4c(n3)NCCC4)n(C)n2)cc1C(C)(C)C (stereo not drawn) [Example 10] | No |
| COc1ccc(C(C)(C)C)cc1C(CC(=O)O)Cc1csc(CCCc2ccc3c(n2)NCCC3)n1 (stereo not drawn) [Example 28] | Yes |

Problem: Criterion: IC50 strictly below 40 nM. Is it met by O=C(O)CC(Cc1cc(OCCc2ccc3c(n2)NCCC3)[nH]n1)c1cccc(F)c1 (stereo not drawn) [CC2, reference compound] ?
Result: No

Problem: Criterion: IC50 strictly below 40 nM. Is it met by COc1ccc(S(F)(F)(F)(F)F)cc1C(CC(=O)O)Cc1cc(OCCc2ccc3c(n2)NCCC3)n(C)n1 (stereo not drawn) [Example 24] ?
Result: Yes

Problem: Criterion: IC50 strictly below 40 nM. Is it met by Cn1nc(CC(CC(=O)O)c2cc(Cl)cc(C(C)(C)C#N)c2)cc1OCCc1ccc2c(n1)NCCC2 (stereo not drawn) [Example 8] ?
Result: Yes

Problem: Criterion: IC50 strictly below 40 nM. Is it met by CC(C)c1cc(C#N)cc(C(CC(=O)O)Cc2cc(OCCc3ccc4c(n3)NCCC4)n(C)n2)c1 (stereo not drawn) [Example 2, trifluoroacetic acid] ?
Result: Yes

Problem: Criterion: IC50 strictly below 40 nM. Is it met by CC(C)(C)c1cc(C(CC(=O)O)Cc2csc(CCCc3ccc4c(n3)NCCC4)n2)cc(C(C)(C)C(F)(F)F)c1 (stereo not drawn) [Example 31] ?
Result: No

Problem: Criterion: IC50 strictly below 40 nM. Is it met by Cn1nc(CC(CC(=O)O)c2cc(C(C)(C)C)cc(C(C)(C)CO)c2)cc1OCCc1ccc2c(n1)NCCC2 (stereo not drawn) [Example 7] ?
Result: Yes

Problem: Criterion: IC50 strictly below 40 nM. Is it met by COc1c(C(C)C)cc(C(CC(=O)O)Cc2csc(CCCc3ccc4c(n3)NCCC4)n2)cc1C(C)C (stereo not drawn) [Example 26] ?
Result: Yes

Problem: Criterion: IC50 strictly below 40 nM. Is it met by COc1ccc(C(C)(C)O)cc1C(CC(=O)O)Cc1cc(OCCc2ccc3c(n2)NCCC3)n(C)n1 (stereo not drawn) [Example 22] ?
Result: No

Problem: Criterion: IC50 strictly below 40 nM. Is it met by COc1ccc(C(CC(=O)O)Cc2cc(OCCc3ccc4c(n3)NCCC4)n(C)n2)cc1F (stereo not drawn) [Example 44] ?
Result: No
